Target: T1, cynomolgus monkey transferrin receptor 1 (cTfR1) (cynomolgus monkey (Macaca fascicularis), UniProt Q5RDH6 89-760 (Pongo abelii entry), limits assumed)
T1 construct: Recombinant cynomolgus TfR1; also called cyTfR1; cyno TfR1
T1 chain: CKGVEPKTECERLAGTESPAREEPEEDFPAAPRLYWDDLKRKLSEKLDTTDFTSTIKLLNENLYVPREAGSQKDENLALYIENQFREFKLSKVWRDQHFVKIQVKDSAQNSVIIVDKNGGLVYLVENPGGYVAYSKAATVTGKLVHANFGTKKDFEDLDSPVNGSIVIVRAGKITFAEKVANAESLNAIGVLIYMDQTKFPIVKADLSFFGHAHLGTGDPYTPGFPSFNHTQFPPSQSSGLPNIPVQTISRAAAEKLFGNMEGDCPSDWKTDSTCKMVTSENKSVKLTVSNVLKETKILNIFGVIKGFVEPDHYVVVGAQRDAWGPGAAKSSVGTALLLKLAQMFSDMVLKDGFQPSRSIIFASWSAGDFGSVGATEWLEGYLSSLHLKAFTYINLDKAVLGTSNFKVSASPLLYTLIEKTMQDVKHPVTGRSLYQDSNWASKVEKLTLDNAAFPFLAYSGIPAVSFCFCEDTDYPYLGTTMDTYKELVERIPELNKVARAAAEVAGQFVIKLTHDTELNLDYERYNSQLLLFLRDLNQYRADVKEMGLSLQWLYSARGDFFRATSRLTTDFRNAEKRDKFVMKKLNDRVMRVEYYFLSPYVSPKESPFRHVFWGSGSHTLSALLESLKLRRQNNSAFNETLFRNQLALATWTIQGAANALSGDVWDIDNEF
Assay: ELISA, cyno TfR1, Fab, day 0 of thermal stability test
experimental.readout: Binding affinity cyno TfR1 d 0

What does the data say about its Binding affinity cyno TfR1 d 0? Entry: humanized anti-TfR Fab 3A4 VH3/Vk4 (Fab, V domains shown) VH: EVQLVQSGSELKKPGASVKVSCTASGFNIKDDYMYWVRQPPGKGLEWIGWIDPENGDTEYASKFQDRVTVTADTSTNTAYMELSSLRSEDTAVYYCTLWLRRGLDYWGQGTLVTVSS VL: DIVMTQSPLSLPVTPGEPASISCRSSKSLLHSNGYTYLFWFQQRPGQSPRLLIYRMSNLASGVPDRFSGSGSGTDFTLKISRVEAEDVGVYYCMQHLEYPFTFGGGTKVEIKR
122 nM

Source listed as patent US20240016952A1.
